procedureSummary: Inhibition constant against mandelate racemase from Pseudomonas putida at pH 6.3
measurementName: pKi
Keep in mind that pKi stands for -log10 of concentration in molar terms.

Q) What measured pKi goes with O=P(O)(O)C(F)(F)c1ccccc1 ?
A) 3.00

* * *

procedureSummary: pKa2 (Dissociation constant) value (phosphonate group) was determined
Format: physicochemical
testContext: read-out: pKa2
measurementName: pKa
Write the value as a bare number.

Q) Field request: pKa | item: O=P(O)(O)C(O)c1ccccc1 (racemic) [ALPHA HYDROXY BENZYLPHOSPHONATE]
A) 6.89

Q) Quick one: O=P(O)(O)[C@H](O)c1ccccc1
A) 6.89

Q) Record: O=C(c1ccccc1)P(=O)(O)O [BENZOYLPHOSPHONATE]
A) 5.46

Q) Further, for O=P(O)(O)[C@@H](O)c1ccccc1 ?
A) 6.89
